Assay: NCI Yeast Anticancer Drug Screen. Data for the cln2 rad14 strain (AID 165)
Conditions: S. cerevisiae cln2 rad14 strain, at 50.0 µM
This is part of a sample that, as a whole, favours compounds with a hit. Of some 79,000 tested, about 15% had one in any assay. Activity calls are given as the source filed them. No stated cut-off is given here; in the data, active means growth inhibition above about 70%; inactive means the rest. Where a SMILES comes first, the peptide text is derived from it. The star is where a group is joined. Cbz = O=C(OCc1ccccc1)*; NHNH2 = NN*
Permitted responses: active, inactive

Below are worked cases with known answers.
CC1(C)CCc2cc3c(cc2O1)OC(C)(C)CC3=O = inactive
COc1ccc(C2CC(=O)N(c3nccc(C)n3)C(=O)C2)cc1 = inactive
COC(=O)C(=[N+]=[N-])C(=O)c1ccccc1[N+](=O)[O-] = inactive

input: Status in this test for `O=C(O)c1cccc(N=Nc2ccccc2)c1O` ?
output: inactive

input: Param item: `CCOC(=O)NC(=O)CC#N`
output: inactive

input: Param item: `NCCNCCCNC(=O)c1cc(-c2ccccc2)nc2ccccc12`
output: inactive

input: Param item: COC(=O)CC(NC(=O)OCc1ccccc1)C(=O)NC(CC(=O)OC)C(=O)NC(CC(=O)OC)C(=O)NC(CC(=O)OC)C(=O)NC(CC(=O)OC)C(=O)NC(CC(=O)OC)C(=O)NN (stereo not given) (Cbz-D(OMe)D(OMe)D(OMe)D(OMe)D(OMe)D(OMe)-NHNH2; configuration not given here)
output: inactive

input: Param item: `CC(=O)N1Cc2cncnc2C1`
output: inactive

input: Param item: CN=C1CC2CCCC1C2 (stereo not given)
output: inactive

input: Param item: `CC(=O)Oc1nnc(-c2ccccc2)c(-c2ccccc2)n1`
output: inactive

input: Param item: O=C(O)CC1CCCc2ccccc2C1=O (stereo not given)
output: inactive

input: Param item: `OCCCN1CCN(CCO)CC1`
output: inactive

input: Param item: `COc1ccc(N2C(=O)C(=O)N(C)C2=O)c2ccccc12`
output: inactive

input: Param item: `NC(=O)Cn1c(=O)[nH]c(=O)c2[nH]cnc21`
output: inactive

input: Param item: `O=[N+]([O-])c1ccccc1N/N=C/c1ccccc1`
output: inactive

input: Param item: `COC(=O)c1cc(C(=O)OC)c(C(=O)OC)cc1C(=O)OC`
output: inactive

input: Param item: O=C1OCCC1n1cc(F)c(=O)[nH]c1=O (stereo not given)
output: inactive

input: Param item: O=C(Cc1ccccc1)c1ccc(OCC(O)CN2CCN(c3ccccc3)CC2)cc1 (stereo not given)
output: active

Hey, just so you know, these numbers are from PubChem BioAssay (NCI).
